Test: DRUGMATRIX: GABAA, Muscimol, Central radioligand binding (ligand: [3H] Muscimol)
Type: cell membranes, Rattus norvegicus, Wistar, Brain, Membrane
Conditions: Not Active = under 50% inhibition at 10 µM
value-type: Ki

Some solved entries appear below for comparison.
[
  {
    "compound": "C/C=C/C[C@@H](C)[C@@H](O)[C@H]1C(=O)N[C@@H](CC)C(=O)N(C)CC(=O)N(C)[C@@H](CC(C)C)C(=O)N[C@@H](C(C)C)C(=O)N(C)[C@@H](CC(C)C)C(=O)N[C@@H](C)C(=O)N[C@H](C)C(=O)N(C)[C@@H](CC(C)C)C(=O)N(C)[C@@H](CC(C)C)C(=O)N(C)[C@@H](C(C)C)C(=O)N1C",
    "recorded-value": "Not Active"
  },
  {
    "compound": "CC(=O)Nc1cccc(O)c1",
    "recorded-value": "Not Active"
  },
  {
    "compound": "CC1(C)O[C@@H]2C[C@H]3[C@@H]4C[C@H](F)C5=CC(=O)C=C[C@]5(C)[C@H]4[C@@H](O)C[C@]3(C)[C@]2(C(=O)CO)O1 [FLUNISOLIDE]",
    "recorded-value": "Not Active"
  },
  {
    "compound": "COC(=O)C1=C(C)NC(C)=C(C(=O)OCC(C)C)C1c1ccccc1[N+](=O)[O-] (stereo not given)",
    "recorded-value": "Not Active"
  }
]

In the following, a different compound is considered.
Request: # lookup: Ki of CO[C@H]1/C=C/O[C@@]2(C)Oc3c(C)c(O)c4c(c3C2=O)C2=NC3(CCN(CC(C)C)CC3)NC2=C(NC(=O)/C(C)=C\C=C\[C@H](C)[C@H](O)[C@@H](C)[C@@H](O)[C@@H](C)[C@H](OC(C)=O)[C@@H]1C)C4=O
Result: Not Active

###

Target: Beta-1 adrenergic receptor (Homo sapiens, UniProt P08588)
Sequence (P08588 whole entry): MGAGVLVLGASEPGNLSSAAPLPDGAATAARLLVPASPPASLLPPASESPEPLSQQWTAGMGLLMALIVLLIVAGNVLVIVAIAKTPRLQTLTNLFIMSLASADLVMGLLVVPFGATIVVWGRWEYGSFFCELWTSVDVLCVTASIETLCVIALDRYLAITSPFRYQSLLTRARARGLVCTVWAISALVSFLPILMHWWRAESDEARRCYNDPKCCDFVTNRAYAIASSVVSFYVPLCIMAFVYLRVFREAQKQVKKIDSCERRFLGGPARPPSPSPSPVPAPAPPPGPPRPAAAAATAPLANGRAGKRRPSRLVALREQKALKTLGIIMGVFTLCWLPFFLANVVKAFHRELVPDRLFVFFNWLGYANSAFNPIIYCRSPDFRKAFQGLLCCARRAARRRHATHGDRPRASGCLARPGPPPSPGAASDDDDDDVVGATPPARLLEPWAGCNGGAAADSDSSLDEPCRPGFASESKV
Experiment: DRUGMATRIX: Adrenergic beta1 radioligand binding (ligand: [125I] Cyanopindolol)
Format: cell membranes, CHO-K1, Membrane
Conditions: cho-k1; Not Active = under 50% inhibition at 10 µM
value-type: IC50

Some solved entries appear below for comparison.
[
  {
    "molecule": "CCN(CC)CCOC(=O)c1ccc(N)cc1",
    "IC50": "Not Active"
  },
  {
    "molecule": "C/C=C/C[C@@H](C)[C@@H](O)[C@H]1C(=O)N[C@@H](CC)C(=O)N(C)CC(=O)N(C)[C@@H](CC(C)C)C(=O)N[C@@H](C(C)C)C(=O)N(C)[C@@H](CC(C)C)C(=O)N[C@@H](C)C(=O)N[C@H](C)C(=O)N(C)[C@@H](CC(C)C)C(=O)N(C)[C@@H](CC(C)C)C(=O)N(C)[C@@H](C(C)C)C(=O)N1C",
    "IC50": "Not Active"
  },
  {
    "molecule": "Nc1c(CC(=O)O)cccc1C(=O)c1ccc(Br)cc1",
    "IC50": "Not Active"
  },
  {
    "molecule": "CCc1c2c(nc3ccc(OC(=O)N4CCC(N5CCCCC5)CC4)cc13)-c1cc3c(c(=O)n1C2)COC(=O)[C@]3(O)CC",
    "IC50": "Not Active"
  }
]

Request: # lookup: IC50 of [H]/N=C(/N)N[C@H]1[C@H](O)[C@@H](O)[C@H](O[C@@H]2O[C@@H](C)[C@](O)(C=O)[C@H]2O[C@@H]2O[C@@H](CO)[C@H](O)[C@@H](O)[C@@H]2NC)[C@@H](N/C(N)=N\[H])[C@@H]1O
Result: Not Active

Request: Try CCCN(CCC)C(=O)C(CCC(=O)O)NC(=O)c1ccccc1 (stereo unspecified) [PROGLUMIDE] next.
Result: Not Active
